biological target: EGFR (Homo sapiens, UniProt P00533, L858R/T790M); construct: endogenous in cells; host or cells: H1975; assay: Cell Degradation 1: EGFR degradation in H1975 cells, HTRF assay; assay type: cell-based; settings: 16 h treatment, EGFR degradation by HTRF
Sequence (P00533 25-1210 T790M/L858R): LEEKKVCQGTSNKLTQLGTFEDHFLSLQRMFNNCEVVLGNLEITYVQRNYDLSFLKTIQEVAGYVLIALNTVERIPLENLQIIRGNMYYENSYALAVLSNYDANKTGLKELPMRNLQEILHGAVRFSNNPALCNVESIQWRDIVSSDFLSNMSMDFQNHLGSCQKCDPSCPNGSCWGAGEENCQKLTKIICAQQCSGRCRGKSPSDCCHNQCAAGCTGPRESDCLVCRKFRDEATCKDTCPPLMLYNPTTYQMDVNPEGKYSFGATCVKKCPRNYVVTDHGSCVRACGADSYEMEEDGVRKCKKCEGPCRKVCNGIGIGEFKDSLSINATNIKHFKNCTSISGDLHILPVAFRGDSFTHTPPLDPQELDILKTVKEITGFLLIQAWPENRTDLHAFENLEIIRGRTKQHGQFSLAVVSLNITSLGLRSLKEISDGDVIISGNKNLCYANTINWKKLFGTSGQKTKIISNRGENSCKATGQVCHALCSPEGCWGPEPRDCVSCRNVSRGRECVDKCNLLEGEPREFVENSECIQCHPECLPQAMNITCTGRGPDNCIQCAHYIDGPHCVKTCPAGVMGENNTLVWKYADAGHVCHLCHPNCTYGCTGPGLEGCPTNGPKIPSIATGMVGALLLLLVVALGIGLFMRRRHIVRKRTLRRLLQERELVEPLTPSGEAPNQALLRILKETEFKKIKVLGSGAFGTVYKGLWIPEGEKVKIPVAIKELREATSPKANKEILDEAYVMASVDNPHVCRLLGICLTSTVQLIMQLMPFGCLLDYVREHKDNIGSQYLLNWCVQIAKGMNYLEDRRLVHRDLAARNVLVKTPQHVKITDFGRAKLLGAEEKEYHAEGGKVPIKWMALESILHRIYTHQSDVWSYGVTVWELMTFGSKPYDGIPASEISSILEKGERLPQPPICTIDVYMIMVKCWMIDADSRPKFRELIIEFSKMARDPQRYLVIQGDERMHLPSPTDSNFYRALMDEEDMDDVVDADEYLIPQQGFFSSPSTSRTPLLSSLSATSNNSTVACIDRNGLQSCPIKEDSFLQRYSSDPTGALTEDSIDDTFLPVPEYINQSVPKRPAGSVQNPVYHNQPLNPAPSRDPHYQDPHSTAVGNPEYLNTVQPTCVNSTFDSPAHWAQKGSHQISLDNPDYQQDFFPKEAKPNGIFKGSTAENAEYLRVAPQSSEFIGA
DC50 values, listed per item
Form entry: enter the amount, then its unit.

Which measured DC50 value corresponds to COc1cc(N2CCC(N3CCN(CCCC4CN(c5ccc6c(c5)C(=O)N(C5CCC(=O)NC5=O)C6=O)C4)CC3)CC2)c(C)cc1Nc1ncc(Br)c(Nc2cccc3c2N(S(C)(=O)=O)CC3)n1 (centres unmarked) ?
10.9 nM

Input CS(=O)(=O)N1CCc2cccc(Nc3nc(Nc4ccc(N5CCC(N6CCN(CCCC7CN(c8ccc9c(c8)C(=O)N(C8CCC(=O)NC8=O)C9=O)C7)CC6)CC5)c(F)c4)ncc3Cl)c21 (centres unmarked)
5.5 nM

* * *

target: EGFR (Homo sapiens, UniProt P00533, L858R/T790M); construct: endogenous in cells; host or cells: H1975; assay: Cell Degradation 1: EGFR degradation in H1975 cells, HTRF assay; type: cell-based; conditions: 16 h treatment, EGFR degradation by HTRF
reported_endpoint: DC50 (nM)
# output: bare number, implied unit nM

Use the examples below as a reference point.
CS(=O)(=O)N1CCc2cccc(Nc3nc(Nc4ccc(N5CCC(N6CCN(CCC7CCN(c8ccc(C9CCC(=O)NC9=O)cc8)CC7)CC6)CC5)c(F)c4)ncc3Cl)c21 (stereo not drawn); 6
CS(=O)(=O)N1CCc2cccc(Nc3nc(Nc4ccc(N5CCC(N6CCN(C(=O)CC7CN(c8ccc9c(c8)C(=O)N(C8CCC(=O)NC8=O)C9=O)C7)CC6)CC5)c(F)c4)nc4[nH]ccc34)c21 (stereo not drawn); 5.7

Next up:
Which measured DC50 value corresponds to COc1cc(N2CCC(N3CCN(C[C@H]4CCN(c5ccc6c(c5)CN(C5CCC(=O)NC5=O)C6=O)C4)CC3)CC2)c(C)cc1Nc1ncc(Br)c(Nc2cccc3c2N(S(C)(=O)=O)CC3)n1 (stereo partly drawn) ?
7

* * *

molecular target: EGFR LTC (Homo sapiens, UniProt P00533, C797S/L858R/T790M); construct: expressed in transfected cells; host or cells: BaF3; test: Cell Degradation 3: EGFR degradation in BaF3 cells (LTC), HTRF assay; assay type: cell-based; details: 16 h treatment, EGFR degradation by HTRF
Sequence (P00533 25-1210 T790M/C797S/L858R): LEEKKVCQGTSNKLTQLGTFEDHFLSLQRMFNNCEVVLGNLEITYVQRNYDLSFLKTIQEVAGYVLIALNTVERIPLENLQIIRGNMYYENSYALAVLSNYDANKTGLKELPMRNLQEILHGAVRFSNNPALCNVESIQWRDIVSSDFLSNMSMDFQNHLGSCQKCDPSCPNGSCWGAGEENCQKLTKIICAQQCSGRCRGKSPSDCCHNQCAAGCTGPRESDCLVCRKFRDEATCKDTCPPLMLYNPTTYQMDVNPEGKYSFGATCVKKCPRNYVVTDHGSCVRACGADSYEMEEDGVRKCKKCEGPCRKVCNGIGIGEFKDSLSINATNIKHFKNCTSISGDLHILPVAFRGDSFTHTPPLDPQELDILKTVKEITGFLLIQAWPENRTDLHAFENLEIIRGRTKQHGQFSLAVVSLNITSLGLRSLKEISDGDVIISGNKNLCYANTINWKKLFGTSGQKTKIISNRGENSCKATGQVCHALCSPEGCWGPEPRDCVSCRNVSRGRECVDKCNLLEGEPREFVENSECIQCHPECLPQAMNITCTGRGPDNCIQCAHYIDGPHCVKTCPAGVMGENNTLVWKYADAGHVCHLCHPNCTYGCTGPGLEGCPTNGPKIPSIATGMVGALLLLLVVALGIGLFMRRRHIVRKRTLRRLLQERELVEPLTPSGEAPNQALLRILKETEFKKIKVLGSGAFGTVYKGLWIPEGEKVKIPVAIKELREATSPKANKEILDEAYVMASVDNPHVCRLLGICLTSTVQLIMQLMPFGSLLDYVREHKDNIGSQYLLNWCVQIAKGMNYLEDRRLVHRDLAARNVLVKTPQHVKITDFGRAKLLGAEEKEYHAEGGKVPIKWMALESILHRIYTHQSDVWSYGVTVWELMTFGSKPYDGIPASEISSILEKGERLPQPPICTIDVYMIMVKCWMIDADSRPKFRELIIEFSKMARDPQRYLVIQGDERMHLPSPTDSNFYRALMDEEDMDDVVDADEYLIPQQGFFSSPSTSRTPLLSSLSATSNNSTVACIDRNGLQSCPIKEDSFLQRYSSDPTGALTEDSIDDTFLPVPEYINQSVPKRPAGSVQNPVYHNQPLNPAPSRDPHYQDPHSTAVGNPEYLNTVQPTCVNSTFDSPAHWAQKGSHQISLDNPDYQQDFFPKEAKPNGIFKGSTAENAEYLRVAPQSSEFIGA
reported_endpoint: DC50

CCc1cc(Nc2ncc(Br)c(Nc3ccc(CC)c4c3N(S(C)(=O)=O)CC4)n2)c(OC)cc1N1CCC(N2CCN(CCc3cc(F)c(C4CCC(=O)NC4=O)c(F)c3)CC2)CC1 (centres unmarked); 65 nM
COc1cc(N2CCC(N3CCN(CC4CN(c5cc(F)c(C6CCC(=O)NC6=O)c(F)c5)C4)CC3)CC2)c(C)cc1Nc1ncc(Br)c(Nc2cccc3c2N(S(C)(=O)=O)CC3)n1 (centres unmarked); 33 nM
COc1cc(N2CCC(N3CCN(C(=O)C4CCN(c5ccc6c(c5)C(=O)N(C5CCC(=O)NC5=O)C6=O)CC4)CC3)CC2)c(C)cc1Nc1ncc(Cl)c(Nc2cccc3c2N(S(C)(=O)=O)CC3)n1 (centres unmarked); 23 nM
COc1cc(N2CCC(N3CCN(C(=O)C4CN(c5ccc6c(c5)CN(C5CCC(=O)NC5=O)C6=O)C4)CC3)CC2)c(C)cc1Nc1ncc(Br)c(Nc2cccc3c2N(S(C)(=O)=O)CC3)n1 (centres unmarked); 9 nM
COc1cc(N2CCC(N3CCN(CCc4ccc(NC5CCC(=O)NC5=O)cc4)CC3)CC2)c(C)cc1Nc1ncc(Br)c(Nc2cccc3c2N(S(C)(=O)=O)CC3)n1 (centres unmarked); 27 nM

Which measured DC50 value corresponds to COc1cc(N2CCC(N3CCN(CCc4cc(Cl)c(C5CCC(=O)NC5=O)cc4F)CC3)CC2)c(C)cc1Nc1ncc(Br)c(Nc2cccc3c2N(S(C)(=O)=O)CC3)n1 (centres unmarked) ?
69 nM

Input CS(=O)(=O)N1CCc2cccc(Nc3nc(Nc4ccc(N5CCC(N6CCN(C(=O)[C@@H]7CCN(c8ccc9c(c8)C(=O)N(C8CCC(=O)NC8=O)C9=O)C7)CC6)CC5)c(F)c4)nc4[nH]ccc34)c21 (some centres unmarked)
4.7 nM

Input COc1cc(N2CCC(N3CCN(C(=O)[C@H]4C[C@H](N(C)c5ccc(C6CCC(=O)NC6=O)cc5)C4)CC3)CC2)c(C)cc1Nc1ncc(Br)c(Nc2cccc3c2N(S(C)(=O)=O)CC3)n1 (some centres unmarked)
23 nM

Input CS(=O)(=O)N1CCc2cccc(Nc3nc(Nc4ccc(N5CCC(N6CCN(CCC7CCN(c8ccc(C9CCC(=O)NC9=O)cc8)CC7)CC6)CC5)c(F)c4)nc4[nH]ccc34)c21 (centres unmarked)
8.4 nM

Input CS(=O)(=O)N1CCc2cccc(Nc3nc(Nc4ccc(N5CCC(N6CCN(CCC7CCN(c8ccc(C9CCC(=O)NC9=O)cc8)CC7)CC6)CC5)c(F)c4)ncc3Cl)c21 (centres unmarked)
84.6 nM

Input CCc1cc(Nc2ncc(Br)c(Nc3ccc(C(F)(F)F)c4c3N(S(C)(=O)=O)CC4)n2)c(OC)cc1N1CCC(N2CCN(C(=O)C3CN(c4cc(F)c([C@H]5CCC(=O)NC5=O)c(F)c4)C3)CC2)CC1
71 nM

Input COc1cc(N2CCC(N3CCN(CCN4CCC(c5ccc(NC6CCC(=O)NC6=O)cc5)CC4)CC3)CC2)c(C)cc1Nc1ncc(Br)c(Nc2cccc3c2N(S(C)(=O)=O)CC3)n1 (centres unmarked)
396 nM

Input COc1cc(N2CCC(N3CCN(C(=O)[C@H]4CCN(c5ccc6c(c5)C(=O)N(C5CCC(=O)NC5=O)C6=O)C4)CC3)CC2)ccc1Nc1ncc(Cl)c(Nc2cccc3c2N(S(C)(=O)=O)CC3)n1 (some centres unmarked)
16.5 nM

Input COc1cc(N2CCC(N3CCN(C(=O)C4CN(c5cc(F)c(C6CCC(=O)NC6=O)c(F)c5)C4)CC3)CC2)c(C)cc1Nc1ncc(Br)c(Nc2cccc3c2N(S(C)(=O)=O)CC3)n1 (centres unmarked)
15 nM

* * *

target: EGFR (Homo sapiens, UniProt P00533, DEL746-750); construct: endogenous in cells; host or cells: HCC827; assay: Cell Degradation 2: EGFR degradation in HCC827 cells, HTRF assay; type: cell-based; settings: 16 h treatment, EGFR degradation by HTRF
Sequence (P00533 with tags, fused parts or gaps DEL746-750): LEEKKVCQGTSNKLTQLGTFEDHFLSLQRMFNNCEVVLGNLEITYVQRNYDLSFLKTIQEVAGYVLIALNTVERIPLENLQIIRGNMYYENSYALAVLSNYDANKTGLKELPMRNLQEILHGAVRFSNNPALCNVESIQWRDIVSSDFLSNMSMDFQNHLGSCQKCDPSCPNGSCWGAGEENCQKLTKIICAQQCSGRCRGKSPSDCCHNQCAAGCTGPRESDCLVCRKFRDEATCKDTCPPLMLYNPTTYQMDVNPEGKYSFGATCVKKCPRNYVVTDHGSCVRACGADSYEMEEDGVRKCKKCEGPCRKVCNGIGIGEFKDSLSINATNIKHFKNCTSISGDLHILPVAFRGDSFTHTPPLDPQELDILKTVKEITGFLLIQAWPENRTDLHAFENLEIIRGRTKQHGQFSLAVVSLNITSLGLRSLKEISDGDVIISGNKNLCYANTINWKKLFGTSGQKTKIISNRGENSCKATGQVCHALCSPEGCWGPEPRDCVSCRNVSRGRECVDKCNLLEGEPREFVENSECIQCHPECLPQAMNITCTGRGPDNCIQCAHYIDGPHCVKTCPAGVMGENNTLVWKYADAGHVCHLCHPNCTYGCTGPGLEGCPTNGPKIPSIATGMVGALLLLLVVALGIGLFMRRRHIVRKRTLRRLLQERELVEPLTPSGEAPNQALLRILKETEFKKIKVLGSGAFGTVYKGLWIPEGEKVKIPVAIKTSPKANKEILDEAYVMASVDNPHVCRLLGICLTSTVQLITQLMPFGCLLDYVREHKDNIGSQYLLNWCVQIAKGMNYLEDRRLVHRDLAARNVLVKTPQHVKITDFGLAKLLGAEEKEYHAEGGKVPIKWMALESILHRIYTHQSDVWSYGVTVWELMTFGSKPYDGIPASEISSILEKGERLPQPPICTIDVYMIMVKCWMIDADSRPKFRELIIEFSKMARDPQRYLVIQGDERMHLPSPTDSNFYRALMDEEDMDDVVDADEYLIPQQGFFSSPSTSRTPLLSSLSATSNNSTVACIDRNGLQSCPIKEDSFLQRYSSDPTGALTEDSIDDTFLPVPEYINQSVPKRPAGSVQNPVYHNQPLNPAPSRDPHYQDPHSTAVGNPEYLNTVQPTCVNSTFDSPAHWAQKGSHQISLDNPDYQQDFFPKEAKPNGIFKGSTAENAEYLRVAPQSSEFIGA
Sequence (Q96SW2 whole entry partner): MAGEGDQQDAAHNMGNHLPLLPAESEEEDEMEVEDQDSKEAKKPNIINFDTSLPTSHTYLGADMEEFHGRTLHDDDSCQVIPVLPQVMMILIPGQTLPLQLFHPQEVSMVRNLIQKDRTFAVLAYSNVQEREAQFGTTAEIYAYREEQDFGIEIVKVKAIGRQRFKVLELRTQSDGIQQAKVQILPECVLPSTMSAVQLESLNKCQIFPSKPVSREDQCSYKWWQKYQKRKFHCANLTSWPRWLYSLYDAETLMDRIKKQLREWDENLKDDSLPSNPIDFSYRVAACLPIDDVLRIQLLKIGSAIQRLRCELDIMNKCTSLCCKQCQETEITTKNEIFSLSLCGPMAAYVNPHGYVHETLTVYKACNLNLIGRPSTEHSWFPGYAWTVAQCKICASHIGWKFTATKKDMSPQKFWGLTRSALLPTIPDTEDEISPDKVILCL
Flag rule - DC50 less than 3 nM flags satisfied; the remaining entries get not satisfied.

COc1cc(N2CCC(N3CCN(CCC4CCN(c5ccc6c(c5)C(=O)N(C5CCC(=O)NC5=O)C6=O)CC4)CC3)CC2)ccc1Nc1ncc(Cl)c(Nc2cccc3c2N(S(C)(=O)=O)CC3)n1 (stereo not shown); not satisfied
CN(CCc1ccc(C2CCC(=O)NC2=O)c(F)c1)C1CCN(c2ccc(Nc3ncc(Cl)c(Nc4cccc5c4N(S(C)(=O)=O)CC5)n3)c3c2CCO3)CC1 (stereo not shown); not satisfied
COc1cc(Nc2nc(Nc3cccc4c3N(S(C)(=O)=O)CC4)c3cc[nH]c3n2)ccc1N1CCC(N2CCN(C(=O)[C@@H]3CCN(c4ccc5c(c4)C(=O)N(C4CCC(=O)NC4=O)C5=O)C3)CC2)CC1 (stereo partly shown); not satisfied

Criterion: DC50 strictly below 3 nM. Is it met by CS(=O)(=O)N1CCc2cccc(Nc3nc(Nc4ccc(N5CCC(N6CCN(CC7CN(c8ccc9c(c8)C(=O)N(C8CCC(=O)NC8=O)C9=O)C7)CC6)CC5)c(F)c4)ncc3Cl)c21 (stereo not shown) ?
not satisfied

Input CS(=O)(=O)N1CCc2cccc(Nc3nc(Nc4ccc(N5CCC(N6CCN(C(=O)CCN7CCN(c8ccc9c(c8)C(=O)N(C8CCC(=O)NC8=O)C9=O)CC7)CC6)CC5)c(F)c4)nc4[nH]ccc34)c21 (stereo not shown)
not satisfied

Input CN(CCN1CCN(C2CCN(c3ccc(Nc4nc(Nc5cccc6c5N(S(C)(=O)=O)CC6)c5cc[nH]c5n4)cc3F)CC2)CC1)c1cccc(C2CCC(=O)NC2=O)c1 (stereo not shown)
not satisfied

Input CS(=O)(=O)N1CCc2cccc(Nc3nc(Nc4ccc(N5CCN(CCC6CCN(c7ccc(C8CCC(=O)NC8=O)cc7)CC6)CC5)c(F)c4)nc4[nH]ccc34)c21 (stereo not shown)
not satisfied

Input CS(=O)(=O)N1CCc2cccc(Nc3nc(Nc4ccc(N5CCC(N6CCN(C(=O)[C@H]7CCN(c8ccc9c(c8)C(=O)N(C8CCC(=O)NC8=O)C9=O)C7)CC6)CC5)c(F)c4)ncc3Cl)c21 (stereo partly shown)
satisfied

Input COc1cc(N2CCC(N3CCN(CC4CN(c5ccc6c(c5)C(=O)N(C5CCC(=O)NC5=O)C6=O)C4)CC3)CC2)ccc1Nc1ncc(Cl)c(Nc2cccc3c2N(S(C)(=O)=O)CC3)n1 (stereo not shown)
satisfied

Input CS(=O)(=O)N1CCc2cccc(Nc3nc(Nc4ccc(N5CCC(N6CCN(CCC7CCN(c8ccc(C9CCC(=O)NC9=O)c(F)c8)CC7)CC6)CC5)c5c4OCC5)ncc3Cl)c21 (stereo not shown)
not satisfied
